# Test system: WI-38
# Run description: Cytotoxicity against human WI-38 cells assessed as reduction in cell viability by MTT assay
# Format: cell-based
# Details: human, wi-38
Provide the reported EC100 of each item.
Numbers only, in nM.

Compound	Unit label	EC100
O=C(Nc1ccc([N+](=O)[O-])cc1)C(c1ccccc1)N(C(=O)c1ccccc1[N+](=O)[O-])c1cccc(Br)c1 (centres undefined)	nM	89.7
O=C(Nc1ccc([N+](=O)[O-])cc1)C(c1ccc([N+](=O)[O-])cc1)N(C(=O)c1ccc([N+](=O)[O-])cc1)c1ccccc1 (centres undefined)	nM	82.4
CC(=O)N(c1ccccc1)C(C(=O)Nc1ccc([N+](=O)[O-])cc1)c1ccccc1 (centres undefined)	nM	301
Cc1ccc(N(C(=O)c2ccc([N+](=O)[O-])cc2)C(C(=O)Nc2ccc([N+](=O)[O-])cc2)c2ccccc2)cc1 (centres undefined)	nM	113.6
O=C(Nc1ccc([N+](=O)[O-])cc1)C(c1ccccc1)N(C(=O)c1ccc([N+](=O)[O-])cc1)c1ccccc1 (centres undefined)	nM	469.8
O=C(Nc1ccc([N+](=O)[O-])cc1)C(c1ccc([N+](=O)[O-])cc1)N(C(=O)c1ccccc1[N+](=O)[O-])c1ccccc1 (centres undefined)	nM	158.3
Cc1ccc(N(C(=O)c2ccc(Cl)cc2)C(C(=O)Nc2ccc([N+](=O)[O-])cc2)c2ccccc2)cc1 (centres undefined)	nM	18.25
O=C(Nc1ccc([N+](=O)[O-])cc1)C(c1ccccc1)N(C(=O)/C=C/c1ccccc1)c1ccccc1 (centres undefined)	nM	4.8

Next up:
Q: Please look up its EC100: O=C(Nc1ccc([N+](=O)[O-])cc1)C(c1ccccc1)N(C(=O)C(Cl)(Cl)Cl)c1ccccc1 (centres undefined)
Result: 1912

---

# Tested on: WI-38
# Run description: Cytotoxicity against human WI-38 cells assessed as reduction in cell viability by MTT assay
# Type: cell-based
# Details: human, wi-38
Readout kind: EC100 (nM)
One number for each entry, in nM.

Kindly give each listed record's EC100.
1. Cc1ccc(N(C(=O)c2ccccc2[N+](=O)[O-])C(C(=O)Nc2ccc([N+](=O)[O-])cc2)c2ccccc2)cc1 (centres undefined)
2. CC(C)(C)OC(=O)NCC(=O)N(c1ccccc1)C(C(=O)Nc1ccc([N+](=O)[O-])cc1)c1ccccc1 (centres undefined)
3. O=C(Nc1ccc([N+](=O)[O-])cc1)C(c1ccccc1)N(C(=O)Cc1ccccc1)c1ccccc1 (centres undefined)
4. O=C(Nc1ccc([N+](=O)[O-])cc1)C(c1ccccc1)N(C(=O)c1ccccc1[N+](=O)[O-])c1ccc(I)cc1 (centres undefined)

Result:
[305.4, 18.2, 290.7, 188.3]

---

Collagenase 3 (Homo sapiens): recorded IC50 for assorted molecules
One number for each entry, in nM.

Molecule	IC50, nM
O=C(Nc1ccc([N+](=O)[O-])cc1)C(c1ccccc1)N(C(=O)c1ccccc1I)c1ccccc1 (configuration not stated)	280

Next up:
Q: API: value(readout= IC50, system= Collagenase 3 (Homo sapiens), query= COc1ccc(S(=O)(=O)N(CC(=O)NO)CC(C)C)cc1 )
Result: 131

---

# Run description: Anticancer activity against […] cells assessed as reduction in cell viability by MTT assay
# Assay type: functional, cell-based
# Details: Mus musculus
pIC50: −log10 of the molar value.
Classify as follows. Reported pIC50 greater than or equal to 8: true. Reported pIC50 below: false.

Compound	Class label
O=C(Nc1ccc([N+](=O)[O-])cc1)C(c1ccccc1)N(C(=O)c1ccccc1I)c1ccccc1 (stereo not given)	true

Q: Entry O=C(Nc1ccc([N+](=O)[O-])cc1)C(c1ccccc1[N+](=O)[O-])N(C(=O)c1ccccc1[N+](=O)[O-])c1ccccc1 (stereo not given) : is its pIC50 no less than 8?
Result: false

Q: Do the same for Cc1ccc(N(C(=O)c2ccccc2[N+](=O)[O-])C(C(=O)Nc2ccc([N+](=O)[O-])cc2)c2ccccc2)cc1 (stereo not given) please
Result: false

Q: Do the same for O=C(Nc1ccc([N+](=O)[O-])cc1)C(c1ccccc1[N+](=O)[O-])N(C(=O)C(F)(F)F)c1ccccc1 (stereo not given) please
Result: false

Q: Do the same for O=C(Nc1ccc([N+](=O)[O-])cc1)C(c1ccccc1)N(C(=O)CCC(=O)N(c1ccccc1)C(C(=O)Nc1ccc([N+](=O)[O-])cc1)c1ccccc1)c1ccccc1 (stereo not given) please
Result: false

Q: Do the same for O=C(Nc1ccc([N+](=O)[O-])cc1)C(c1ccc([N+](=O)[O-])cc1)N(C(=O)c1ccc([N+](=O)[O-])cc1)c1ccccc1 (stereo not given) please
Result: false

Q: Do the same for O=C(Nc1ccc([N+](=O)[O-])cc1)C(c1ccc([N+](=O)[O-])cc1)N(C(=O)c1ccccc1[N+](=O)[O-])c1ccccc1 (stereo not given) please
Result: false

Q: Do the same for O=CN(c1ccccc1)C(C(=O)Nc1ccc([N+](=O)[O-])cc1)c1ccccc1 (stereo not given) please
Result: false

Q: Do the same for Cc1ccc(N(C(=O)c2ccc(Cl)cc2)C(C(=O)Nc2ccc([N+](=O)[O-])cc2)c2ccccc2)cc1 (stereo not given) please
Result: false

Q: Do the same for O=C(Nc1ccc([N+](=O)[O-])cc1)C(c1ccccc1)N(C(=O)c1ccccc1[N+](=O)[O-])c1cccc(Br)c1 (stereo not given) please
Result: false

Q: Do the same for O=C(Nc1ccc([N+](=O)[O-])cc1)C(c1ccccc1)N(Cc1ccccc1)C(=O)Cc1ccccc1 (stereo not given) please
Result: true

Q: Do the same for CC(C)(C)OC(=O)NCC(=O)N(c1ccccc1)C(C(=O)Nc1ccc([N+](=O)[O-])cc1)c1ccccc1 (stereo not given) please
Result: false

Q: Do the same for Cc1ccc(N(C(=O)c2ccc([N+](=O)[O-])cc2)C(C(=O)Nc2ccc([N+](=O)[O-])cc2)c2ccccc2)cc1 (stereo not given) please
Result: false

Q: Do the same for O=C(Nc1ccc([N+](=O)[O-])cc1)C(c1ccc([N+](=O)[O-])cc1)N(C(=O)c1ccc(C(F)(F)F)cc1)c1ccccc1 (stereo not given) please
Result: true

Q: Do the same for NCC(=O)N(c1ccccc1)C(C(=O)Nc1ccc([N+](=O)[O-])cc1)c1ccccc1 (stereo not given) please
Result: false

---

# Run description: Anticancer activity against […] cells assessed as reduction in cell viability by MTT assay
# Assay type: functional, cell-based
# Details: Mus musculus
pIC50: −log10 of the molar value.
Classify as follows. Reported pIC50 greater than or equal to 7: MET. Reported pIC50 below: NOT MET.

Q: Entry O=C(Nc1ccc([N+](=O)[O-])cc1)C(c1ccccc1)N(C(=O)C(Cl)(Cl)Cl)c1ccccc1 (stereo not drawn) : is its pIC50 no less than 7?
Result: MET

Q: Do the same for O=C(Nc1ccc([N+](=O)[O-])cc1)C(c1ccccc1)N(C(=O)Cc1ccccc1)c1ccccc1 (stereo not drawn) please
Result: MET

Q: Do the same for O=C(Nc1ccc([N+](=O)[O-])cc1)C(c1ccccc1)N(C(=O)c1ccccc1[N+](=O)[O-])c1ccccc1 (stereo not drawn) please
Result: MET

Q: Do the same for CC(=O)N(c1ccccc1)C(C(=O)Nc1ccc([N+](=O)[O-])cc1)c1ccccc1 (stereo not drawn) please
Result: NOT MET

Q: Do the same for O=C(Nc1ccc([N+](=O)[O-])cc1)C(c1ccccc1)N(C(=O)C(F)(F)F)c1ccccc1 (stereo not drawn) please
Result: MET

Q: Do the same for O=C(Nc1ccc([N+](=O)[O-])cc1)C(c1ccccc1)N(C(=O)c1ccccc1[N+](=O)[O-])c1ccc(I)cc1 (stereo not drawn) please
Result: NOT MET

---

# Run description: in vitro
# Details: human, WI38 cells and HepG2 cells
# Description: Selectivity index, ratio of IC50 for human WI38 cells to IC50 for human HepG2 cells
Readout kind: selectivity ratio
Numbers only.

Compound	selectivity ratio
O=C(Nc1ccc([N+](=O)[O-])cc1)C(c1ccccc1)N(C(=O)c1ccccc1I)c1ccccc1 (centres undefined)	11.3
O=CN(c1ccccc1)C(C(=O)Nc1ccc([N+](=O)[O-])cc1)c1ccccc1 (centres undefined)	5.09
O=C(Nc1ccc([N+](=O)[O-])cc1)C(c1ccc([N+](=O)[O-])cc1)N(C(=O)c1ccc(C(F)(F)F)cc1)c1ccccc1 (centres undefined)	170

Next up:
Q: Please look up its selectivity ratio: O=C(Nc1ccc([N+](=O)[O-])cc1)C(c1ccc([N+](=O)[O-])cc1)N(C(=O)c1ccc([N+](=O)[O-])cc1)c1ccccc1 (centres undefined)
Result: 0.768

---

# System: MCF7
# Run description: Induction of apoptosis in human MCF-7 cells assessed as late apoptosis by annexinV/propidium iodide staining based by flow cytometry (reference value: 0.01+/- 0.001%)
# Type: functional
Provide the reported Activity of each item.
Report the figure along with its unit, number first.

Compound	System tested	Observed value
O=C(Nc1ccc([N+](=O)[O-])cc1)C(c1ccccc1)N(C(=O)c1ccccc1I)c1ccccc1 (centres undefined)	MCF7	29.82%

Kindly give each listed record's Activity.
1. O=C(Nc1ccc([N+](=O)[O-])cc1)C(c1ccc([N+](=O)[O-])cc1)N(C(=O)c1ccc(C(F)(F)F)cc1)c1ccccc1 (centres undefined)
2. COc1cccc2c1C(=O)c1c(O)c3c(c(O)c1C2=O)C[C@@](O)(C(=O)CO)C[C@@H]3O[C@H]1C[C@H](N)[C@H](O)[C@H](C)O1
3. O=C(Nc1ccc([N+](=O)[O-])cc1)C(c1ccccc1)N(Cc1ccccc1)C(=O)Cc1ccccc1 (centres undefined)

Result:
1: 50.72%; 2: 20.445%; 3: 21.79%
